Recorded values, source patent US11840686B2.

# System: human PKK mRNA
# test details: Antisense inhibition of human PKK mRNA in HepaRG cells, 1,000 nM, MOE/deoxy/cEt oligonucleotides (Example 3)
# Type: cell-based
# conditions used: HepaRG cells, electroporation with 1,000 nM antisense oligonucleotide, approx. 24 hours, PKK mRNA by RT-PCR (RTS3454), relative to untreated control cells; Table 25 experiment
Strand notation (5' to 3'): a small letter for the sugar, then the base; units joined by * are phosphorothioate-linked, units joined directly phosphodiester-linked; [ ] holds rarer units or linkages, { } end groups; capitals alone tell only the bases. e = 2'-O-(2-methoxyethyl) (MOE); k = constrained ethyl (cEt); [5mC] = 5-methylcytosine; d = 2'-deoxy (DNA)
Param threshold (50%) applies to % inhibition; output met when value >= threshold, not met when value < threshold.

Worked examples follow.
• 548220 (eG*e[5mC]*kA*dG*dA*dA*dA*dT*d[5mC]*d[5mC]*dT*dG*dT*kG*k[5mC]*eA; antisense) [compound 548220] = met
• 548190 (eT*eA*kT*dT*d[5mC]*d[5mC]*dA*dT*dG*dA*dA*d[5mC]*dA*kT*k[5mC]*e[5mC]; antisense) [compound 548190] = not met
• 548193 (eT*eG*kT*d[5mC]*d[5mC]*dT*dG*dT*d[5mC]*dA*dA*d[5mC]*dA*kT*kA*eT; antisense) [compound 548193] = met
• 548225 (eA*eG*kT*d[5mC]*dA*d[5mC]*d[5mC]*dA*dT*dA*dG*dA*d[5mC]*k[5mC]*k[5mC]*eA; antisense) [compound 548225] = not met
• 548192 (e[5mC]*e[5mC]*kT*dG*dT*d[5mC]*dA*dA*d[5mC]*dA*dT*dA*dT*kT*k[5mC]*e[5mC]; antisense) [compound 548192] = met

% inhibition >= 50% for 548180 (eT*e[5mC]*kA*dT*dG*dG*dA*dG*dA*dT*d[5mC]*dT*d[5mC]*kA*kG*eT; antisense) [compound 548180] ?
met

Decide: is the reported value of % inhibition for 548212 (eA*eG*k[5mC]*d[5mC]*d[5mC]*dA*d[5mC]*d[5mC]*dA*dA*d[5mC]*dA*dA*kT*k[5mC]*eT; antisense) [compound 548212] equal to or greater than 50%?
not met

Hi, just wondering whether 548161 (e[5mC]*eT*k[5mC]*dG*d[5mC]*dA*dT*dT*dG*dT*d[5mC]*dA*dG*k[5mC]*k[5mC]*e[5mC]; antisense) [compound 548161] shows % inhibition of 50% or higher.
met

Does % inhibition meet or surpass 50% for 548151 (eG*eG*kG*d[5mC]*dT*dT*d[5mC]*dA*dG*d[5mC]*d[5mC]*dA*dG*kA*k[5mC]*eA; antisense) [compound 548151] ?
not met

Is it the case that 548172 (eT*e[5mC]*kA*dG*dT*dT*dG*d[5mC]*dG*dA*d[5mC]*d[5mC]*dT*k[5mC]*kG*e[5mC]; antisense) [compound 548172] has % inhibition reaching or exceeding 50%?
not met

Evaluate 548205 (eT*e[5mC]*kA*dA*dT*d[5mC]*dT*dG*dA*d[5mC]*dT*dA*dG*kT*kG*eA; antisense) [compound 548205] : % inhibition at minimum 50%?
not met

Hello, I need to know if 548154 (eG*eT*kG*d[5mC]*dT*dG*dA*dA*dA*dG*d[5mC]*dG*dG*kG*k[5mC]*eT; antisense) [compound 548154] has measured % inhibition not below 50%. Thanks!
not met

Check the entry 548210 (e[5mC]*eA*kA*d[5mC]*dA*dA*dT*d[5mC]*dT*d[5mC]*dT*dG*dG*kT*k[5mC]*eA; antisense) [compound 548210] : does % inhibition equal or exceed 50%?
met

Hello, I need to know if 548155 (e[5mC]*eG*kT*dG*d[5mC]*dT*dG*dA*dA*dA*dG*d[5mC]*dG*kG*kG*e[5mC]; antisense) [compound 548155] has measured % inhibition not below 50%. Thanks!
met

Is it the case that 548186 (e[5mC]*eA*kA*d[5mC]*dA*d[5mC]*dA*d[5mC]*dA*dG*dT*d[5mC]*dA*kT*kG*eG; antisense) [compound 548186] has % inhibition reaching or exceeding 50%?
not met

Threshold query (% inhibition >= 50%) on 548226 (eT*eA*kA*dG*dT*d[5mC]*dA*d[5mC]*d[5mC]*dA*dT*dA*dG*kA*k[5mC]*e[5mC]; antisense) [compound 548226]
not met

Check the entry 548152 (e[5mC]*eG*kG*dG*d[5mC]*dT*dT*d[5mC]*dA*dG*d[5mC]*d[5mC]*dA*kG*kA*e[5mC]; antisense) [compound 548152] : does % inhibition equal or exceed 50%?
not met

Does 548158 (eG*e[5mC]*kA*dT*dT*dG*dT*d[5mC]*dA*dG*d[5mC]*d[5mC]*d[5mC]*k[5mC]*kT*eG; antisense) [compound 548158] have a reported % inhibition of at least 50%?
not met

Identify whether the reported % inhibition of the following substance is 50% or greater: 548174 (eT*e[5mC]*kT*d[5mC]*dA*dG*dT*dT*dG*d[5mC]*dG*dA*d[5mC]*k[5mC]*kT*e[5mC]; antisense) [compound 548174]
met

In plain terms: is recorded % inhibition at least 50% for 548153 (eT*eG*k[5mC]*dT*dG*dA*dA*dA*dG*d[5mC]*dG*dG*dG*k[5mC]*kT*eT; antisense) [compound 548153] ?
not met

Hi, just wondering whether 548185 (eA*eA*k[5mC]*dA*d[5mC]*dA*d[5mC]*dA*dG*dT*d[5mC]*dA*dT*kG*kG*eA; antisense) [compound 548185] shows % inhibition of 50% or higher.
not met

Does the reported % inhibition for 548218 (eT*e[5mC]*k[5mC]*dT*dG*dT*dG*d[5mC]*dA*dT*dA*dG*dA*k[5mC]*k[5mC]*e[5mC]; antisense) [compound 548218] fall at or above the 50% mark?
met

Reported % inhibition at or above 50%? 548171 (e[5mC]*eA*kG*dT*dT*dG*d[5mC]*dG*dA*d[5mC]*d[5mC]*dT*d[5mC]*kG*k[5mC]*eA; antisense) [compound 548171]
not met
